details: pH 2.7
Marks after values point to notes of the source that are not given here.
MEASURED ATTRIBUTE: Log P

Please review the following examples before continuing.
| MOLECULE | Log P |
| --- | --- |
| CCOC(=O)C(C#N)=C(NC(C)(C)C#CCOC)c1cn(C)nc1C(F)F | 2.73^[a] |
| CCOC(=O)/C(C#N)=C(\NC(C)(C)C)c1nc(SC)ncc1Br | 3.82^[a] |
| CCOC(=O)C(C#N)=C(NCc1nccs1)c1ccsc1Br | 2.66^[a] |
| COC(=O)C(C#N)=C(NC(C)c1ccc(C)cc1)c1cccnc1Cl (centres unmarked) | 3.28^[a] |

Below: the item to evaluate.
Task item: Answer with the recorded Log P for the molecule listed here: CCOC(=O)C(C#N)=C(NC(C)C(C)C)c1cn(C)cc1C(F)(F)F (racemic)
Reply: 3.84^[a]

Hey, just so you know, these numbers are from patent US8476197B2.
